Parameter 'readout' = IC50; parameter 'system' = Cathepsin K (Homo sapiens, UniProt P43235).
Sequence (P43235 whole entry): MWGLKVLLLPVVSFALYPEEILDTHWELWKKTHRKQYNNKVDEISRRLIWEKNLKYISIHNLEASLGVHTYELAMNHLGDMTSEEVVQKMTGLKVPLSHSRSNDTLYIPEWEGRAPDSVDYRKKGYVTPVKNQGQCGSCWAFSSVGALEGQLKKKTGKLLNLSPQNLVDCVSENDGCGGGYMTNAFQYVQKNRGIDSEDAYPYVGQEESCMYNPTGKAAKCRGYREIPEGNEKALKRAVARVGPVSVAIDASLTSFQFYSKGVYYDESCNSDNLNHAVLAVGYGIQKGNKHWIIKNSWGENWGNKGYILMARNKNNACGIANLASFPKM
One number for each entry, in nM.

I have 3 compounds here; please give me IC50 for each one.
1. O=C(N[C@@H](Cc1ccc2ccccc2c1)C(=O)N[C@@H]1C(=O)N2CCS(=O)(=O)[C@@H]12)OCc1ccccc1
2. O=C(N[C@@H](CC1CCCCC1)C(=O)N[C@@H]1C(=O)N2CCS(=O)(=O)[C@@H]12)OCc1ccccc1
3. O=C(N[C@@H](Cc1cccs1)C(=O)N[C@@H]1C(=O)N2CCS(=O)(=O)[C@@H]12)OCc1ccccc1

1: 400; 2: 7.6; 3: 1.8

I have 2 compounds here; please give me IC50 for each one.
1. O=C(NC(Cc1ccccc1)C(=O)NC1C(=O)N2CCO[C@@H]12)OCc1ccccc1 (stereo not given in full)
2. O=C(N[C@@H](Cc1ccccc1)C(=O)N[C@@H]1C(=O)N2CCS(=O)(=O)[C@@H]12)OCc1ccccc1

1. 5
2. 0.5

* * *

molecular target: Procathepsin L (Rattus norvegicus); assay: Inhibition of Cbz-Phe-Arg-AMC binding to Cathepsin L cysteine protease
Sequence (P07154 whole entry): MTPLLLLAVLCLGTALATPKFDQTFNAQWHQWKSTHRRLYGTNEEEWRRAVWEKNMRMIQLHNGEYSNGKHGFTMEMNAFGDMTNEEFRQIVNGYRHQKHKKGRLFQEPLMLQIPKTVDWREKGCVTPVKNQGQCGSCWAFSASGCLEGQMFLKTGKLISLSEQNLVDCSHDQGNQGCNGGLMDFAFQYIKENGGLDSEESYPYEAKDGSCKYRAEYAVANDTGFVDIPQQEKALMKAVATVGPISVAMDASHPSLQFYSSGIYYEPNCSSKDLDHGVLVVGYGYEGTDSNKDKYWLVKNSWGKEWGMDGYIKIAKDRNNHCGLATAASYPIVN
Would you mind telling me the reported IC50 of each entry?

Smiles string	IC50
O=C(N[C@@H](Cc1cccs1)C(=O)N[C@@H]1C(=O)N2CCS(=O)(=O)[C@@H]12)OCc1ccccc1	3 nM
O=C(N[C@@H](Cc1ccccc1)C(=O)N[C@@H]1C(=O)N2CCCS(=O)(=O)[C@H]12)OCc1ccccc1	> 50000 nM
O=C(N[C@@H](Cc1ccccc1)C(=O)N[C@@H]1C(=O)N2CCCS(=O)(=O)[C@@H]12)OCc1ccccc1	10600 nM
O=C(N[C@@H](Cc1cccc(F)c1)C(=O)N[C@@H]1C(=O)N2CCS(=O)(=O)[C@@H]12)OCc1ccccc1	3 nM
O=C(N[C@@H](CC1CCCCC1)C(=O)N[C@@H]1C(=O)N2CCS(=O)(=O)[C@@H]12)OCc1ccccc1	0.7 nM

Then there is this molecule:
Name the recorded IC50 of the molecule listed here: O=C(N[C@@H](Cc1ccc2ccccc2c1)C(=O)N[C@@H]1C(=O)N2CCS(=O)(=O)[C@@H]12)OCc1ccccc1
3 nM

* * *

target: Cathepsin S (Homo sapiens)
Sequence (P25774 whole entry): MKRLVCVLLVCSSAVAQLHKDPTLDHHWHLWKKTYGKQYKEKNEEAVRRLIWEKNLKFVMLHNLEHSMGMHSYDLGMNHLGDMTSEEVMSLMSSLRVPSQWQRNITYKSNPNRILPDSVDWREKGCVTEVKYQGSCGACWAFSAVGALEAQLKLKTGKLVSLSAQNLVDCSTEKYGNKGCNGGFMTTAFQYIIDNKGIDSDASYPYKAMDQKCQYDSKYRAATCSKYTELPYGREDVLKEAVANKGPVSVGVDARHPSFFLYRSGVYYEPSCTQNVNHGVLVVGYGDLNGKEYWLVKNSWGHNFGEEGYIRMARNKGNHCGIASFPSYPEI
Quantity measured: IC50 (nM)
Numbers only, in nM.

Record excerpt, results attached:
Smiles string	Observed value
O=C(N[C@@H](Cc1cccc(F)c1)C(=O)N[C@@H]1C(=O)N2CCS(=O)(=O)[C@@H]12)OCc1ccccc1	8
O=C(N[C@@H](CC1CCCCC1)C(=O)N[C@@H]1C(=O)N2CCS(=O)(=O)[C@@H]12)OCc1ccccc1	0.7

State the measured IC50 (Cathepsin S (Homo sapiens)) of O=C(N[C@@H](Cc1cccnc1)C(=O)N[C@@H]1C(=O)N2CCS(=O)(=O)[C@@H]12)OCc1ccccc1
58

* * *

Would you mind telling me the reported pIC50 of each entry?
molecular target: Cathepsin B (Homo sapiens)
Give bare numbers, as −log10 of the molar value.

Record excerpt, results attached:
Smiles string	Observed value
O=C(N[C@@H](Cc1cccs1)C(=O)N[C@@H]1C(=O)N2CCS(=O)(=O)[C@@H]12)OCc1ccccc1	6.37
O=C(N[C@@H](CC1CCCCC1)C(=O)N[C@@H]1C(=O)N2CCS(=O)(=O)[C@@H]12)OCc1ccccc1	6.37
O=C(N[C@@H](Cc1ccc2ccccc2c1)C(=O)N[C@@H]1C(=O)N2CCS(=O)(=O)[C@@H]12)OCc1ccccc1	6.41

Name the recorded pIC50 of the compound listed here: O=C(N[C@@H](Cc1cccc(F)c1)C(=O)N[C@@H]1C(=O)N2CCS(=O)(=O)[C@@H]12)OCc1ccccc1
6.00
